Listing of entries alongside the reported MFI.
# Assay system: T1, human CLDN6 protein (human, UniProt P56747 1-220)
# T1 construct: whole, on cells; also called hCLDN6; claudin 6
# T1 sequence (looked up): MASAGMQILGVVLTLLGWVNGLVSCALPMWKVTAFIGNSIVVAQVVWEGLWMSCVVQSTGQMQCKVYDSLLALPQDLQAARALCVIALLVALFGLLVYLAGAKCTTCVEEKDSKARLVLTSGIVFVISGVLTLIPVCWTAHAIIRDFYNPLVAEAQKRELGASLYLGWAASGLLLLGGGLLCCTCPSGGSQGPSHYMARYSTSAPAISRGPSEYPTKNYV
# Experimental protocol: flow cytometry on cells overexpressing human CLDN6; 10 µg/mL purified antibody, Alexa 647 anti-mouse secondary; single point
Lab note: record the figure alone, no unit after it.

{"columns": ["Binder", "Value"],
 "data": [
  ["SC27.108 mouse monoclonal anti-CLDN antibody (antibody, V domains shown, also called SC27.109 (identical)) VH: QVQMQQSGAELVRPGTSVKVSCKASGYAFTNYLIEWVKQRPGQGLEWIGLINPGSGGTNYNEKFKGKATLTADKSSTTAYMQLSSLTSDDSAVYFCARRSPLGSWIYYAYDGVAYWGQGTLVTVSA VL: EIVLTQSPALMAASPGEKVTITCSVSSSISSSNLHWYQQKSGTSPKLWIYGTSNLASGVPVRFSGSGSGTSYSLTISNMEAEDAATYYCQQWSSYPHTFGGGTKLEIK", 99700]
]}

Turning now to a further binder:
Specify measured MFI for SC27.203 (antibody, V domains shown, also called SC27.203 mouse monoclonal anti-CLDN antibody) VH: EVQLQQSGPELVKPGASVKISCKTSGYTFTENIIHWVKQSHGKSLEWIGGINPINGGTSYNQKFKGKATLTVDKSSSTAYMELRSLTSEDSAVYYCARGITTSPYAMDYWGQGTSVTVSS VL: DIQMTQSSSSFSVSLGDRVTITCKASEDIYNRLAWYQQNPGNTPRLLMSGATSLETGVPSRFSGSGSGKDYTLSITSLQIEDVSTYYCQQYWSTPPTFGGGTRLEIK .
47400

Measured values drawn from patent US20190077876A1 for this set.
